target: T1, MUC1 on HCT116/MUC1 cells (UniProt P15941 24-1255, limits assumed); assay: FACS titration, HCT116/MUC1 cells, antibody at 125 nM
T1 construct: whole, on cells; also called MUC1 overexpressed cell line
T1 sequence (P15941 24-1255 limits assumed): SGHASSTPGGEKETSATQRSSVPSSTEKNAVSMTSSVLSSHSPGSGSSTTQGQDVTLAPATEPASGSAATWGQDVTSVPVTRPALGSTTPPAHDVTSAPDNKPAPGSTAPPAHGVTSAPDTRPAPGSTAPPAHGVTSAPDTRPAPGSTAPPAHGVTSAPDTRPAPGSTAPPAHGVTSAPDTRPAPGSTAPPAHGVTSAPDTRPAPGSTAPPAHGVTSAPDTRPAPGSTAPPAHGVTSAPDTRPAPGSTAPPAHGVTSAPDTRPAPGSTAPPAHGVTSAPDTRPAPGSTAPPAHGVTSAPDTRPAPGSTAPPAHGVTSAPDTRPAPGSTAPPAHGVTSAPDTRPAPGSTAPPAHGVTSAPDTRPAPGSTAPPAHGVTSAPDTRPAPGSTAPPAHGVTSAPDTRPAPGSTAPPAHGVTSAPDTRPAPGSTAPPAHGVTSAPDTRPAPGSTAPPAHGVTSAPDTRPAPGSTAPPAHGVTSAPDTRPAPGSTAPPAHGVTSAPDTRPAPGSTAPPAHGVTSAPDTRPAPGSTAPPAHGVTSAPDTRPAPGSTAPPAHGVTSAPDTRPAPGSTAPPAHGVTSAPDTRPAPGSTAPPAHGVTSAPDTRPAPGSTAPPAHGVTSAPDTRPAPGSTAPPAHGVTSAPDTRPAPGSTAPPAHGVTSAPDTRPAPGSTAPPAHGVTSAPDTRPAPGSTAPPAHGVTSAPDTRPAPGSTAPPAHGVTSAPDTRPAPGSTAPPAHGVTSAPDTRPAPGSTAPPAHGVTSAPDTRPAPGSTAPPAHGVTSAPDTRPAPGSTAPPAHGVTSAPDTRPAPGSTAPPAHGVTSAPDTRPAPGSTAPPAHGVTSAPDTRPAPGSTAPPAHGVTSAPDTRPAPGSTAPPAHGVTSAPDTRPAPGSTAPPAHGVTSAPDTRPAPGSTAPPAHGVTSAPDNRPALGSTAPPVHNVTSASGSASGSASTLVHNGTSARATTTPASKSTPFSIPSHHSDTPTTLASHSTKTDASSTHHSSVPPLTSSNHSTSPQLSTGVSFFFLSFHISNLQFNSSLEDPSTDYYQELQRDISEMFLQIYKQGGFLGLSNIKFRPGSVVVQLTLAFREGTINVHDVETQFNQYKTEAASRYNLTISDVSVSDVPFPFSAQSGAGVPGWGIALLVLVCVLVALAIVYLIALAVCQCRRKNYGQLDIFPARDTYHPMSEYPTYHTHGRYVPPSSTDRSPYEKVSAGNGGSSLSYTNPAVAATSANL
Listed here: items and their measured geometric mean.
Number only, please.

Worked cases, geometric mean given:
Query: I'd like to know its geometric mean. The binder in question is VH2 + VL3 (antibody, V domains shown, Humanized IgG expressed in HEK293; also called humanized antibody VH2+VL3) VH: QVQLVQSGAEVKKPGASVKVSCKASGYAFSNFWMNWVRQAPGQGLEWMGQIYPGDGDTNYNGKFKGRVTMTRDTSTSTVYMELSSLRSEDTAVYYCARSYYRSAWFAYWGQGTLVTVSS VL: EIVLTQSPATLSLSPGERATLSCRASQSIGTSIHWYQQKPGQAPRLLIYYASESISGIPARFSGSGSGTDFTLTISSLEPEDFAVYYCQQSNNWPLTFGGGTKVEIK
Result: 147

Query: Need geometric mean, item VH1 + VL1 (antibody, V domains shown, Humanized IgG expressed in HEK293; also called humanized antibody VH1+VL1) VH: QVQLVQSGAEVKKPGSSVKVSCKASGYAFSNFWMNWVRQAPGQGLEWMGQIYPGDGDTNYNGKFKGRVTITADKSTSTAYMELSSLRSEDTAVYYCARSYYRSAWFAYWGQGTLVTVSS VL: EIVLTQSPDFQSVTPKEKVTITCRASQSIGTSIHWYQQKPDQSPKLLIKYASESISGVPSRFSGSGSGTDFTLTINSLEAEDAATYYCQQSNNWPLTFGQGTKVEIK
Result: 332

--- query ---
Query: # get_value(readout='geometric mean', item= VH3 + VL4 (antibody, V domains shown, Humanized IgG expressed in HEK293; also called humanized antibody VH3+VL4) VH: QVQLVQSGAEVKKPGASVKVSCKASGYAFSNFWMNWVRQAPGQGLEWMGQIYPGDGDTNYNGKFKGRVTMTRDTSISTAYMELSRLRSDDTAVYYCARSYYRSAWFAYWGQGTLVTVSS VL: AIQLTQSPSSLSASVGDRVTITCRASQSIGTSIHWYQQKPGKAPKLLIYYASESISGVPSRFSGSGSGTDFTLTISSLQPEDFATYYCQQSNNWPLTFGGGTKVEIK )
Result: 208

Every entry's value here was drawn from patent US20180036441A1.
